Listed here are binders together with their documented IL-2, % of BMS, at 20 ug/mL.
assay_target: human LAG3 expressed on cells (human) (UniProt P18627)
Sequence (P18627 23-525): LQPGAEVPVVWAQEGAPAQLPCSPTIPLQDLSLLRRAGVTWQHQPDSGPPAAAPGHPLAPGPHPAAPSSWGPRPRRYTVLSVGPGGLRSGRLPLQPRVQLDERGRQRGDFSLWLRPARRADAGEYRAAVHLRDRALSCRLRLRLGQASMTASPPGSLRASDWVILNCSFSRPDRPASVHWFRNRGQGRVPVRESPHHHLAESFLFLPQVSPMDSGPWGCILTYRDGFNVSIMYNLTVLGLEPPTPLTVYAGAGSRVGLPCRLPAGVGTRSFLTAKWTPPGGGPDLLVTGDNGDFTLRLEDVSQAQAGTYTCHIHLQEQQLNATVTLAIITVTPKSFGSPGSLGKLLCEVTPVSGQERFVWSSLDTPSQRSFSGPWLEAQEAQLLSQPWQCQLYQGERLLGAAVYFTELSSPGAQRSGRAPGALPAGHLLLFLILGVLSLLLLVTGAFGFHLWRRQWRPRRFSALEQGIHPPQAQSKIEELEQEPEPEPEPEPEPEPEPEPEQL
protocol_notes: cell-based or functional assay
Just the number in %, nothing appended.

In the examples that follow, each entry is paired with its recorded IL-2, % of BMS, at 20 ug/mL.
binder	units_of_measure	value
sdAb fusion 25-17-2 (Fc fusion, not shown: a dimerising Fc or GST) QLQLVESGGGLVQAGGSLRLSCAASGSIESFSFMGWYRQAPGKQRELVAGFTGAASLSFSTYTDAVKGRFTISRDNAKNTVYLQMNSLKPEDTAVYFCNVDPWSQSWPGRYWGQGTQVTVSSGGGGSGGGGSQLQLVESGGGLVQPGGSLRLSCAASGLTLDGYAIGWFRQAPGKEREGLACISGSDGSTHYLDSVKGRFTISRDNGKNTMALQMNSLQFGDTAIYYCAARRGSCSGSWTYWGQGTQVTVSSEPKSCDKTHTCPPCPAPELLG	%	111
sdAb fusion 25-2015-1 (Fc fusion, not shown: a dimerising Fc or GST) QLQLVESGGGLVQAGGSLRLSCAASGSIESFSFMGWYRQAPGKQRELVAGFTGAASLSFSTYTDAVKGRFTISRDNAKNTVYLQMNSLKPEDTAVYFCNVDPWSQSWPGRYWGQGTQVTVSSGGGGSQLQLVESGGGLAQTGGSLRLSCAAAGFTFDDTATGWFRQAPGKNREGVACISSSDGRIHYIDSAKGRFTISKDNAKKTVYLQMDSLKPEDTAVYYCAAARKGSTDCQGAIWGSWGQGTQVIVSSEPKSCDKTHTCPPCPAPELLG	%	117
sdAb fusion 25-17-3 (Fc fusion, not shown: a dimerising Fc or GST) QLQLVESGGGLVQAGGSLRLSCAASGSIESFSFMGWYRQAPGKQRELVAGFTGAASLSFSTYTDAVKGRFTISRDNAKNTVYLQMNSLKPEDTAVYFCNVDPWSQSWPGRYWGQGTQVTVSSGGGGSGGGGSGGGGSQLQLVESGGGLVQPGGSLRLSCAASGLTLDGYAIGWFRQAPGKEREGLACISGSDGSTHYLDSVKGRFTISRDNGKNTMALQMNSLQFGDTAIYYCAARRGSCSGSWTYWGQGTQVTVSSEPKSCDKTHTCPPCPAPELLG	%	103

Q: Fill in reported IL-2, % of BMS, at 20 ug/mL for this entry: sdAb fusion 25-2015-3 (Fc fusion, not shown: a dimerising Fc or GST) QLQLVESGGGLVQAGGSLRLSCAASGSIESFSFMGWYRQAPGKQRELVAGFTGAASLSFSTYTDAVKGRFTISRDNAKNTVYLQMNSLKPEDTAVYFCNVDPWSQSWPGRYWGQGTQVTVSSGGGGSGGGGSGGGGSQLQLVESGGGLAQTGGSLRLSCAAAGFTFDDTATGWFRQAPGKNREGVACISSSDGRIHYIDSAKGRFTISKDNAKKTVYLQMDSLKPEDTAVYYCAAARKGSTDCQGAIWGSWGQGTQVIVSSEPKSCDKTHTCPPCPAPELLG
A: 116

Q: Fill in reported IL-2, % of BMS, at 20 ug/mL for this entry: sdAb fusion 25-17-1 (Fc fusion, not shown: a dimerising Fc or GST) QLQLVESGGGLVQAGGSLRLSCAASGSIESFSFMGWYRQAPGKQRELVAGFTGAASLSFSTYTDAVKGRFTISRDNAKNTVYLQMNSLKPEDTAVYFCNVDPWSQSWPGRYWGQGTQVTVSSGGGGSQLQLVESGGGLVQPGGSLRLSCAASGLTLDGYAIGWFRQAPGKEREGLACISGSDGSTHYLDSVKGRFTISRDNGKNTMALQMNSLQFGDTAIYYCAARRGSCSGSWTYWGQGTQVTVSS
A: 110

Q: Fill in reported IL-2, % of BMS, at 20 ug/mL for this entry: sdAb fusion 25-27-2 (Fc fusion, not shown: a dimerising Fc or GST) QLQLVESGGGLVQAGGSLRLSCAASGSIESFSFMGWYRQAPGKQRELVAGFTGAASLSFSTYTDAVKGRFTISRDNAKNTVYLQMNSLKPEDTAVYFCNVDPWSQSWPGRYWGQGTQVTVSSGGGGSGGGGSQVQLVESGGGLVQPGGSLRLSCAASGFTLDYYAIGWFRQAPGKEREGVSCIRSSDGSTYYADSVKGRFTISSDNTKNTVYLQMNSLKPEDTAVYYCATDRYSDCRGPYENWGQGTQVTVSSEPKSCDKTHTCPPCPAPELLG
A: 124
